# target: Receptor-type tyrosine-protein kinase FLT3 (Homo sapiens) (UniProt P36888)
# Sequence (P36888 whole entry, looked up): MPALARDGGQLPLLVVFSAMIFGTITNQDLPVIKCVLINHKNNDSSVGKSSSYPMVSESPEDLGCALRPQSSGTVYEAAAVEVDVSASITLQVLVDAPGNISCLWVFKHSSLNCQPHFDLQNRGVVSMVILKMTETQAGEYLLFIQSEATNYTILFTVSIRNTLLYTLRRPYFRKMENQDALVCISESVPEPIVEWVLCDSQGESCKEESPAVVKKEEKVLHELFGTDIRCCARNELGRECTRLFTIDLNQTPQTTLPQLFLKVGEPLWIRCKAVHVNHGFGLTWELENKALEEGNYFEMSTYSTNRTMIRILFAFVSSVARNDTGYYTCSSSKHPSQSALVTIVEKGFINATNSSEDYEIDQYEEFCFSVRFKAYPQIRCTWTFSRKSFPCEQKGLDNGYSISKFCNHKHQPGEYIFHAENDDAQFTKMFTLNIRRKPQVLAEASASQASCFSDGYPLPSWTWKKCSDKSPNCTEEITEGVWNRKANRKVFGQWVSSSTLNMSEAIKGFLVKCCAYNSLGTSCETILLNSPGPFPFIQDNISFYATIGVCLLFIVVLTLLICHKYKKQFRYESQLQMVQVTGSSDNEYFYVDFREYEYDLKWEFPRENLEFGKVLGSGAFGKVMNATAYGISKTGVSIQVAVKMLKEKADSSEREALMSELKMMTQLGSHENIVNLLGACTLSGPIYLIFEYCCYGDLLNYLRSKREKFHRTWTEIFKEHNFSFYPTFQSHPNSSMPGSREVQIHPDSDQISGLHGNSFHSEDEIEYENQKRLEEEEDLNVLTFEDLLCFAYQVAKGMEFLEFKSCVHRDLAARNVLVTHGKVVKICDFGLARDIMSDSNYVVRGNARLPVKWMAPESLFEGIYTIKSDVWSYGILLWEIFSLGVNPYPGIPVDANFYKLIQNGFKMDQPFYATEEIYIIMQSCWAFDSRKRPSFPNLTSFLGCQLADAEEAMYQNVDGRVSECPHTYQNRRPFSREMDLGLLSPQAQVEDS
# test-method-notes: inhibitors of Homo sapiens fms-like tyrosine kinase 3, primary HTS, cell-free, LANCE Ultra TR-FRET, NPC library from NCATS (AID 1117356)
# settings: recombinant FLT3, LANCE Ultra TR-FRET kinase assay; inhibition; at 2 µM; stronger effect = higher value
I'd be grateful if you could share measured inhibition for these entries.
Just so you know, I need the unit written after the number.

Known results for compounds:
CN(C)c1ccc2nc3ccc(=[N+](C)C)cc-3sc2c1 ... 17.2%
Cc1ccccc1C(=O)Nc1ccc(C(=O)N2CCCC(N(C)C)c3ccccc32)cc1 (stereo not drawn) ... 9.15%
NC(=NCCCCCCN=C(N)/N=C(\N)Nc1ccc(Cl)cc1)/N=C(\N)Nc1ccc(Cl)cc1 ... 22.6%

Hi team, please reply with inhibition for each item in this list.
1. O=c1[nH]c(=O)n([C@H]2C[C@H](O)[C@@H](CO)O2)cc1C(F)(F)F
2. COC(=O)Nc1nc2ccc(C(=O)C3CC3)cc2[nH]1
3. CSc1ccc2c(c1)C(N1CCN(C)CC1)Cc1ccccc1S2 (stereo not drawn)
4. CC[C@@H]([C@H](C)O)n1ncn(-c2ccc(N3CCN(c4ccc(OC[C@@H]5CO[C@@](Cn6cncn6)(c6ccc(F)cc6F)C5)cc4)CC3)cc2)c1=O
5. Oc1c(Cl)cc(Cl)cc1Sc1cc(Cl)cc(Cl)c1O
6. CCCCCCCCCCCCCCCC[n+]1ccccc1

A.
["6.77%", "33.1%", "16.4%", "-10.5%", "3.25%", "2.47%"]

---

# target: Receptor-type tyrosine-protein kinase FLT3 (Homo sapiens)
# test-method-notes: inhibitors of Homo sapiens fms-like tyrosine kinase 3, primary HTS, cell-free, LANCE Ultra TR-FRET, NPC library from NCATS (AID 1117356)
# settings: recombinant FLT3, LANCE Ultra TR-FRET kinase assay; inhibition; at 2 µM; stronger effect = higher value
I'd be grateful if you could share measured inhibition for these entries.
Give bare numbers, in %.

CCCCCCCCCCCCCC[N+](C)(C)C ... 11.1
S=c1nc[nH]c2nc[nH]c12 ... -4.89
CCCCCCCCCCCCCCCCCCNC(=O)OC1CCN(C(=O)OC[C@H](COC(=O)N(Cc2cccc[n+]2CC)C(=O)c2ccccc2OC)OC)CC1 ... -22.2
Cc1ccc2nc(N)[nH]c(=O)c2c1Sc1ccncc1 ... 25.2
CC(C)C[C@H](NC(=O)[C@H](CCc1ccccc1)NC(=O)CN1CCOCC1)C(=O)N[C@@H](Cc1ccccc1)C(=O)N[C@@H](CC(C)C)C(=O)[C@@]1(C)CO1 ... 15
COCc1c(C(C)C)nc(C(C)C)c(/C=C/[C@@H](O)C[C@@H](O)CC(=O)O)c1-c1ccc(F)cc1 ... 11.1
CCC(C)n1ncn(-c2ccc(N3CCN(c4ccc(OC[C@H]5CO[C@](Cn6cncn6)(c6ccc(Cl)cc6Cl)O5)cc4)CC3)cc2)c1=O (some centres undefined) ... 0.24
CC(C)(C)C(=O)OCOP(=O)(COCCn1cnc2c(N)ncnc21)OCOC(=O)C(C)(C)C ... 12.9
O=c1[nH]c(=O)n([C@H]2C[C@H](O)[C@@H](CO)O2)cc1F ... 4.81
CC(=O)Oc1ccc(C2(c3ccc(OC(C)=O)cc3)Oc3ccccc3NC2=O)cc1 ... 14.5

Hi team, please reply with inhibition for each item in this list.
1. CC(=O)[C@]1(O)Cc2c(O)c3c(c(O)c2[C@@H](O[C@H]2C[C@H](N)[C@H](O)[C@H](C)O2)C1)C(=O)c1ccccc1C3=O
2. Cn1cnc([N+](=O)[O-])c1Sc1ncnc2nc[nH]c12

A.
-59.1
4.78

---

# target: UniProt:P36888
# test-method-notes: inhibitors of Homo sapiens fms-like tyrosine kinase 3, primary HTS, cell-free, LANCE Ultra TR-FRET, NPC library from NCATS (AID 1117356)
# settings: recombinant FLT3, LANCE Ultra TR-FRET kinase assay; inhibition; at 2 µM; stronger effect = higher value
measure-name: inhibition (%)
Numbers only, in %.

Known results for compounds:
Cc1cc(C)c(/C=C2\C(=O)Nc3ccccc32)[nH]1 ... 98.6
CCN(CC)CCNc1ccc(CO)c2sc3ccccc3c(=O)c12 ... 6.21
Cc1ccc(Nc2nccc(N(C)c3ccc4c(C)n(C)nc4c3)n2)cc1S(N)(=O)=O ... 74.4
COc1cc(-c2ccc(=O)[nH]n2)ccc1OC(F)F ... 1.13
CCCSc1ccc2nc(NC(=O)OC)[nH]c2c1 ... 22.7
COc1ccc2cc1Oc1ccc(cc1)C[C@H]1c3c(cc4c(c3Oc3cc5c(cc3OC)CCN(C)[C@@H]5C2)OCO4)CCN1C ... -0.97
Cc1cc2c(C(C)C)c(O)c(O)c(C=O)c2c(O)c1-c1c(C)cc2c(C(C)C)c(O)c(O)c(C=O)c2c1O ... -1.93
COC(=O)Nc1nc2ccc(C(=O)c3ccccc3)cc2[nH]1 ... 8.15

Hi team, please reply with inhibition for each item in this list.
1. COc1cc2nc(N3CCN(C(=O)c4ccco4)CC3)nc(N)c2cc1OC
2. CC(C)(C)C1CCC(CC2=C(O)c3ccccc3C(=O)C2=O)CC1 (configuration not stated)
3. Cc1cc(C2CCCCC2)n(O)c(=O)c1
4. COc1ccc(-c2nc3ccc(C4=NNC(=O)CC4C)cc3[nH]2)cc1 (configuration not stated)

A.
8.33
21.2
-3.23
35.3

Where these numbers come from: PubChem BioAssay AID1117356
